Biological target: isolated enzyme (Homo sapiens, UniProt P12821)
Sequence (P12821 30-1306): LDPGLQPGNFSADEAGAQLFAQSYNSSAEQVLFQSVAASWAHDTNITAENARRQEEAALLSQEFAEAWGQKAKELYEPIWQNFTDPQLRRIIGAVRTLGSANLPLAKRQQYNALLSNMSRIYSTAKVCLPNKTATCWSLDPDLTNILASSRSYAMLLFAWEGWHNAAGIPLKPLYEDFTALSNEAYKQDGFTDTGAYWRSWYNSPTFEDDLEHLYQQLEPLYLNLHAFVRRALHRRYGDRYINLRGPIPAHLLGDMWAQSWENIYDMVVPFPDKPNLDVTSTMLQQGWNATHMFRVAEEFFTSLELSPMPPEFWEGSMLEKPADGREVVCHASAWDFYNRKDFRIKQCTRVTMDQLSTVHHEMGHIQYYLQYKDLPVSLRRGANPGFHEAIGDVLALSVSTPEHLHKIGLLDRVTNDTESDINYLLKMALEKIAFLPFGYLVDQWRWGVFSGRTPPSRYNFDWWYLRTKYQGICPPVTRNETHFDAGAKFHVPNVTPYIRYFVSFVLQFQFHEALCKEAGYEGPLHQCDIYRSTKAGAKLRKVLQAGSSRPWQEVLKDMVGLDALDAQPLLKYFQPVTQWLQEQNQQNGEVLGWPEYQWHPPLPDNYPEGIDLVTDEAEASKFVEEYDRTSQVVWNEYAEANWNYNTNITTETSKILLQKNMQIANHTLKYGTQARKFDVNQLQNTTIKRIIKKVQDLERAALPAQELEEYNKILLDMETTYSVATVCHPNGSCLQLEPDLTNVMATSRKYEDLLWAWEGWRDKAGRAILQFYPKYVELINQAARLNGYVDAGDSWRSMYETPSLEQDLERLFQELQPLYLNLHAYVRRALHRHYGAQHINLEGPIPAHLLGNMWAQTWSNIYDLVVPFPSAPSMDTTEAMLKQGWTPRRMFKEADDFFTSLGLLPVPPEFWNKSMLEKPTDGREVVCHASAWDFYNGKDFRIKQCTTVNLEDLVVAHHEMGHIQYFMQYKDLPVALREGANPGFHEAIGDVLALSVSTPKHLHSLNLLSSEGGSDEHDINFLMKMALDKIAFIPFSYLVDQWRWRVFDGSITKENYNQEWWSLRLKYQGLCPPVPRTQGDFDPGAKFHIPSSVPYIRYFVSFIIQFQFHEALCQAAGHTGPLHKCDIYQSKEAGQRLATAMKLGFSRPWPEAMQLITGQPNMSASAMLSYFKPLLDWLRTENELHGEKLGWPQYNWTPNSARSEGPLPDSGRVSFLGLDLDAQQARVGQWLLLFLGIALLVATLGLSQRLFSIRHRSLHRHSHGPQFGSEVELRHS
Assay: ACE inhibition on isolated enzyme
Conditions: read-out: apparent IC50 on isolated enzyme
quantity.name: pIC50
One number for each entry, as −log10 of the molar value.

Report pIC50 for CC(C)NCC(O)COc1cccc2[nH]c(C(=O)NCCCC[C@H](NC(C)C(=O)N3CCC[C@H]3C(=O)O)C(=O)O)cc12 (stereo partly shown) [Example 1] please.
7.96

Hey, just so you know, these numbers are from patent EP0174162A2.
